The reported measurements were obtained from patent EP4603105A1.

Test system: human lung cancer strain NCI-H441
Format: cell-based
Where a SMILES comes first, the peptide text is derived from it. Bridges are numbered along the chain shown (N, C = ends). [ ]: non-standard residue; d: D form. The star is where a group is joined. NEtPhe(4-CF3) = CCN[C@@H](Cc1ccc(C(F)(F)F)cc1)C(=O)O; hPhe(3,4-Cl2) = N[C@@H](CCc1ccc(Cl)c(Cl)c1)C(=O)O; NMeGly(cPent) = CN[C@H](C(=O)O)C1CCCC1; NMeD = CN[C@@H](CC(=O)O)C(=O)O; NMeL = CN[C@@H](CC(C)C)C(=O)O; Morpholide = C1CN(*)CCO1; NMeA = CN[C@@H](C)C(=O)O; Ac5c = NC1(C(=O)O)CCCC1; Aze = O=C(O)[C@@H]1CCN1; Sar = CNCC(=O)O
This section presents compounds with their documented IC50 values.

[
  {
    "COMPOUND": "CCO[C@@H]1C[C@H]2C(=O)NC3(CCC3)C(=O)N(C)[C@@H](C3CCCC3)C(=O)N(C)[C@H](C(=O)N(C)CC)CC(=O)N(C)[C@@H](C3CC3)C(=O)N[C@@H]([C@@H](C)CC)C(=O)N(C)CC(=O)N(C)[C@H]3C/C=C\\CCN(C3=O)[C@@H](Cc3ccc(C(F)(F)F)cc3)C(=O)N(C)CC(=O)N[C@@H](CCc3ccc(C(F)(F)F)c(OC)c3)C(=O)N2C1",
    "IC50": "4.9 nM"
  }
]

Here's the next entry for you.
Ask | Please look at this compound and report its IC50: CC[C@H](C)[C@@H]1NC(=O)[C@H](CC(C)C)N(C)C(=O)C[C@@H](C(=O)N2CCOCC2)N(C)C(=O)[C@H](C2CCCC2)N(C)C(=O)C2(CCCC2)NC(=O)[C@@H]2CCCN2C(=O)[C@H](CCc2ccc(Cl)c(Cl)c2)NC(=O)CN(C)C(=O)[C@H](Cc2ccc(C(F)(F)F)cc2)N(CC)C(=O)[C@@H]2CCN2C(=O)[C@H](C)N(C)C1=O [PP0223] ([NMeL]I[NMeA][Aze][NEtPhe(4-CF3)][Sar][hPhe(3,4-Cl2)]P[Ac5c][NMeGly(cPent)][NMeD]-Morpholide; lactam N-11)
Reply | 5 nM
